src = patent US10450368

Biological target: T1, CH505w020.14D8gp120
T1 construct: also called CH505w20.14 gp120
Assay: ELISA
Listed next: entries and their corresponding LogAUC.
Give only the figure.

CH491 (antibody, V domains shown, also called CH235.7; DH491) VH: QVQLVQSGAAVKRPGASVTISCRASGYTFTTYYIHWVRQAPGQGLELMGWINPRGGRTDYSYRFEDRVSMYRDTSMSIVYMDLRNLKSADTAVYYCVRNVGTSGSLLHYDFWGQGSLVTVSS VL: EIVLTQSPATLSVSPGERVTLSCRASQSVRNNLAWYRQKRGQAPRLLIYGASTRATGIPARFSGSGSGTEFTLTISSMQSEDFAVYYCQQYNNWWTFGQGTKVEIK
9.35
CH555 (antibody, V domains shown, also called CH235.10) VH: QVQLVQSGATVKKPRASVTLSCRTSGYNFIDYFIHWVRRAPGQRLEVMGYIDPSRGRPDYAPNFRDRVSLYRDTSMSIVYLDLRDLTPDDTAIYYCVRSEGTEGTVLHYDHWGPGTRVTVSP VL: EIVLTQSPDTLSASPGERVTLSCRASQSVGTKVAWYRHVRGQPPRLLIYGASTRAAGIPARFSGGGSGTNFTLIINNFQSEDFAEYLCQQYKSWWTFGQGTKVDNK
5.63
CH236 (antibody, V domains shown, also called CH236_4A/293i) VH: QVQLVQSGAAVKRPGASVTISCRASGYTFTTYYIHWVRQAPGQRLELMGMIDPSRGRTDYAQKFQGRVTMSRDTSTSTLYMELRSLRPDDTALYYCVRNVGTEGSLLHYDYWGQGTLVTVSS VL: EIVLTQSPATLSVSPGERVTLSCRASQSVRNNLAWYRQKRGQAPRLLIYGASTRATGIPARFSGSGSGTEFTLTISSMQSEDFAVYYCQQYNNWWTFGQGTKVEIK
6.72

Would you kindly look at the next entry?
The reported LogAUC of the binder CH557 (antibody, V domains shown, also called CH235.12; CH557_4A/293i) VH: QVRLAQYGGGVKRLGATMTLSCVASGYTFNDYYIHWVRQAPGQGFELLGYIDPANGRPDYAGALRERLSFYRDKSMETLYMDLRSLRYDDTAMYYCVRNVGTAGSLLHYDHWGSGSPVIVSS VL: EIVLTQSPATLSASPGERVTLTCRASRSVRNNVAWYQHKGGQSPRLLIYDASTRAAGVPARFSGSASGTEFTLAISNLESEDFTVYFCLQYNNWWTFGQGTRVDIK was 8.33
